# tested.target: human SLC6A19 and TMEM27 (Homo sapiens, UniProt Q695T7)
# Construct: expressed in transfected cells
# Sequence (Q695T7 1-634): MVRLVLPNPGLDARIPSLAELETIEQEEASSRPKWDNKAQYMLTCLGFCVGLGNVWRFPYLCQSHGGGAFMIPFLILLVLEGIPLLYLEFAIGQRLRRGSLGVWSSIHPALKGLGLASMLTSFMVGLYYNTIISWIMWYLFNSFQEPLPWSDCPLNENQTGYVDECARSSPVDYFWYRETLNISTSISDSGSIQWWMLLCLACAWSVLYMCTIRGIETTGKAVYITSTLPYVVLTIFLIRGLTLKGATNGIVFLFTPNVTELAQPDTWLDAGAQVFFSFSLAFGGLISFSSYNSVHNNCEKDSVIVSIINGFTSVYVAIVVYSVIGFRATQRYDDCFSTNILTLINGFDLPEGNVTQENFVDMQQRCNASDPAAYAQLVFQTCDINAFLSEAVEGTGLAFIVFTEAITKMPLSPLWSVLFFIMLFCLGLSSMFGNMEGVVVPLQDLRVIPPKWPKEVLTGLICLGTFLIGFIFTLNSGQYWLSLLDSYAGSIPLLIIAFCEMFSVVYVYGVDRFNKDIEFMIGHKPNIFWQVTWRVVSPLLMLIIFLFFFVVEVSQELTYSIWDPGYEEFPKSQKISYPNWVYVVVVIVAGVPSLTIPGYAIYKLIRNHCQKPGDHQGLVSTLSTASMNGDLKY
# Sequence (Q9HBJ8 15-222 partner): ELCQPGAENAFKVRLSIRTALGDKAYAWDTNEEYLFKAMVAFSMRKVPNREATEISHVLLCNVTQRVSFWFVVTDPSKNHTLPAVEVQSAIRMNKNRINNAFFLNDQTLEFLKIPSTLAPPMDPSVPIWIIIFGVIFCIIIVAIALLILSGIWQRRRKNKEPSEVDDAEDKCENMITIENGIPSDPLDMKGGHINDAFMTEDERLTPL
# method.notes: Radiolabelled (3H) leucine uptake in CHO cells with doxycycline-inducible expression of human SLC6A19 and TMEM27 (Example B-1)
# Assay type: cell-based
# assay.context: CHO cells with doxycycline-inducible expression of human SLC6A19 and TMEM27, read-out: SLC6A19_Radioligand Uptake Assay IC50
endpoint: IC50 (nM)

# molecule, endpoint, unit.annotation, experimental.value
data = [
    ("CCC(=O)NCc1cc2c(F)cc(OCc3ccon3)cc2[nH]1", "IC50", "nM", 243),
    ("COC(C)C(=O)NCc1cc2cc(Cl)c(OCc3cscn3)cc2[nH]1 (stereo not drawn)", "IC50", "nM", 515),
]

[P] Cc1cc(COc2cc3[nH]c(CNC(=O)[C@@H]4C[C@H]4F)cc3cc2Cl)on1
[Q] O=C(NCc1cc2cc(OC(F)(F)F)c(OCc3cscn3)cc2[nH]1)N1CCCC1
Between P and Q , which one shows the larger IC50 value? Let me know the label of the one you choose.
Q
(Q: 384 nM, P: 108 nM)

[P] CCC(=O)NCc1cc2cc(Cl)c(OCc3ccon3)cc2[nH]1
[Q] O=C(NCc1cc2cc(Cl)c(OCc3cocn3)cc2[nH]1)N1CCC1
Smaller IC50 value? Options are P and Q Pick one and reply with its label.
P

[A] CCC(=O)NCc1cc2cc(C)c(OCc3cscn3)cc2[nH]1
[B] O=C(NCc1cc2cc(Cl)c(OCc3cscn3)cc2[nH]1)C(F)CF (racemic)
Dear colleague, could you let me know whether A or B has the lower recorded IC50? Thanks. Respond with the label that goes with your answer.
B
(B: 112 nM, A: 192 nM)
